Answer each item with its documented log10(microsomal CLint at 1 µM).
Assay: Microsomal clearance, mouse microsomes
Please interpret these as log10 of microsomal CLint at 1 µM where microsomal CLint at 1 µM is in µL/min/mg.

Looking up O=C(c1ccc2nc(-c3cnc(C4CCCCC4)cc3C3CCCCC3)oc2c1)N1CCN(c2nc3ccccc3c(=O)[nH]2)CC1 , I found its log10(microsomal CLint at 1 µM) recorded as 1.67

Reported log10(microsomal CLint at 1 µM) for O=C(c1ccc2nc(-c3cccnc3C3CCCC3)oc2c1)N1CCN(c2nc3ccccc3c(=O)[nH]2)CC1 was 2.06

Note to self: log10(microsomal CLint at 1 µM) recorded for O=C(c1ccc2nc(-c3cnccc3C3CCNCC3)oc2c1)N1CCN(c2nc3nc(Cl)ccc3o2)CC1.O=CO was 1.00

Sample O=C(c1ccc2nc(-c3cccnc3)oc2c1)N1CCN(c2nc3ccccc3c(=O)[nH]2)CC1 ; log10(microsomal CLint at 1 µM) observed: 1.00

So for O=C(c1ccc2nc(-c3cnccc3C3CCCC3)oc2c1)N1CC2(CC(n3cnc(C4CC4)n3)C2)C1 , the logged log10(microsomal CLint at 1 µM) turned out to be 2.73

# molecule O=C(c1ccc2nc(-c3cnccc3C3CCCC3)oc2c1)N1CCN(c2nc3nc(Cl)ccc3o2)CC1 ; its log10(microsomal CLint at 1 µM) = 2.25

Value of log10(microsomal CLint at 1 µM) reported for the molecule O=C(c1ccc2nc(-c3cccnc3C3CCCC3)oc2c1)N1CCN(c2nc3nc(Cl)ccc3o2)CC1 is 1.79

* * *

Test: Hepatocyte clearance
Conditions: human, primary pooled cryopreserved hepatocytes in suspension
I'd appreciate it if you could supply hepatocyte CLint at 1 µM values for the items below.
Could you give me the number in µL/min/1e6 cells? Just the number is fine.

Briefly, hepatocyte CLint at 1 µM measured for O=C(c1ccc2nc(-c3cnccc3C3CCNCC3)oc2c1)N1CCN(c2nc3nc(Cl)ccc3o2)CC1.O=CO [Compound 25] : 1

// sample O=C(c1ccc2nc(-c3cnccc3C3CCCC3)oc2c1)N1CC(N2CCN(C(=O)c3nccs3)CC2)C1 [Compound 31] , its hepatocyte CLint at 1 µM was 163

hepatocyte CLint at 1 µM measured on O=C(c1ccc2nc(-c3cccnc3C3CCCC3)oc2c1)N1CCN(c2nc3nc(Cl)ccc3o2)CC1 [Compound 24] = 42.2

hepatocyte CLint at 1 µM reported for this molecule O=C(c1ccc2nc(-c3cccnc3C3CCCC3)oc2c1)N1CCN(c2nc3ccccc3c(=O)[nH]2)CC1 [Compound 21] : 47.7

Documented hepatocyte CLint at 1 µM of O=C(c1ccc2nc(-c3cnc(C4CCCCC4)cc3C3CCCCC3)oc2c1)N1CCN(c2nc3ccccc3c(=O)[nH]2)CC1 [Compound 19] : 4.6

What the record says about O=C(c1ccc2nc(-c3ccc(C4CCCC4)nc3)oc2c1)N1CC2(CC(n3cnc(C4CC4)n3)C2)C1 [Compound 30] : hepatocyte CLint at 1 µM is 187

Looking up O=C(c1ccc2nc(-c3ccc(C4CCCC4)nc3)oc2c1)N1CCN(c2nc3ccccc3c(=O)[nH]2)CC1 [Compound 22] , I see its hepatocyte CLint at 1 µM listed as 104

* * *

Target: CYP2C9 (Homo sapiens, UniProt P11712)
Sequence (P11712 whole entry): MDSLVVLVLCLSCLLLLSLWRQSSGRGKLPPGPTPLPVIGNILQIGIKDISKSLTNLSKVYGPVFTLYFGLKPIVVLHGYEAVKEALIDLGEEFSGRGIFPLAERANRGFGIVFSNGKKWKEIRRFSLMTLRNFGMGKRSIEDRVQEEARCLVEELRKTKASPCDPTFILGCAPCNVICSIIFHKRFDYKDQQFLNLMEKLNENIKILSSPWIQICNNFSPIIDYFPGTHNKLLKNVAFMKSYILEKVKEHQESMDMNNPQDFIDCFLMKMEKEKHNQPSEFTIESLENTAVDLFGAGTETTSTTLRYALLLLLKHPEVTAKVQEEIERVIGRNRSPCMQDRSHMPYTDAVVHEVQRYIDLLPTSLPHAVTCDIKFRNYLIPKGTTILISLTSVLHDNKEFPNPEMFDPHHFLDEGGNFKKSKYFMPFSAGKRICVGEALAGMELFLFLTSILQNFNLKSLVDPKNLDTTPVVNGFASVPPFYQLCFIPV
Assay: Cytochrome P450 inhibition assay, CYP2C9
Conditions: liver microsomes
readout_type: CYP2C9 Inhibition (%)
Write down the numeric answer in % and omit the unit.

CYP2C9 Inhibition reported for this compound O=C(c1ccc2nc(-c3cnccc3C3CCCC3)oc2c1)N1CCN(c2nc3nc(Cl)ccc3o2)CC1 [Compound 23] : 45

// O=C(c1ccc2nc(-c3cnccc3C3CCCC3)oc2c1)N1CC(N2CCN(C(=O)c3nccs3)CC2)C1 [Compound 31] : CYP2C9 Inhibition value = 43

// CYP2C9 Inhibition lookup, compound = O=C(c1ccc2nc(-c3ccc(C4CCCC4)nc3)oc2c1)N1CCN(c2nc3ccccc3c(=O)[nH]2)CC1 [Compound 22] , result: 23

CYP2C9 Inhibition reading for O=C(c1ccc2nc(-c3cccnc3C3CCCC3)oc2c1)N1CCN(c2nc3ccccc3c(=O)[nH]2)CC1 [Compound 21] : 74

For reference, reported CYP2C9 Inhibition for O=C(c1ccc2nc(-c3cccnc3)oc2c1)N1CCN(c2nc3ccccc3c(=O)[nH]2)CC1 [Compound 17] stands at 2

Entry O=C(c1ccc2nc(-c3cnccc3C3CCNCC3)oc2c1)N1CCN(c2nc3nc(Cl)ccc3o2)CC1.O=CO [Compound 25] — recorded CYP2C9 Inhibition = -5

For record O=C(c1ccc2nc(-c3cnccc3C3CCCC3)oc2c1)N1CC2(CC(n3cnc(C4CC4)n3)C2)C1 [Compound 29] the listed CYP2C9 Inhibition is 70

Please fill in: CYP2C9 Inhibition reported for O=C(c1ccc2nc(-c3ccc(C4(C5CCC5)CC4)nc3)oc2c1)N1CCN(c2nc3ccccc3c(=O)[nH]2)CC1 [Compound 20] = 24

# CYP2C9 Inhibition of O=C(c1ccc2nc(-c3cccnc3C3CCNCC3)oc2c1)N1CCN(c2nc3nc(Cl)ccc3o2)CC1.O=CO [Compound 26] = -23

CYP2C9 Inhibition reading for O=C(c1ccc2nc(-c3cccnc3C3CCCC3)oc2c1)N1CCN(c2nc3nc(Cl)ccc3o2)CC1 [Compound 24] : 45

Documented CYP2C9 Inhibition of O=C(c1ccc2nc(-c3cnccc3C3CCCC3)oc2c1)N1CCN(c2nc3ccccc3c(=O)[nH]2)CC1 [Compound 18] : 62

Short answer for O=C(c1ccc2nc(-c3ccc(C4CCCC4)nc3)oc2c1)N1CC2(CC(n3cnc(C4CC4)n3)C2)C1 [Compound 30] : CYP2C9 Inhibition was -19

Noted for O=C(c1ccc2nc(-c3cnc(C4CCCCC4)cc3C3CCCCC3)oc2c1)N1CCN(c2nc3ccccc3c(=O)[nH]2)CC1 [Compound 19] : its CYP2C9 Inhibition reads 49

// field: CYP2C9 Inhibition; key: O=C(c1ccc2nc(-c3cnccc3C3(C4CCC4)CC3)oc2c1)N1CCN(c2nc3nc(Cl)ccc3o2)CC1 [Compound 27] ; value = 73

Sourced from paper PMC12749626
